Assay explanation: Selectivity index, ratio of CC50 for cytotoxicity against human MT4 cells to EC50 for antiviral activity against HIV2 ROD infected in human MT4 cells
Format: toxicity, cell-based
Cond: read-out: Ratio CC50/EC50
Recorded selectivity ratio values for a group of compounds are listed next.

>  <Structure smiles string>
COc1ccc(N(C)C(=O)[C@H](Cc2cc(F)cc(F)c2)NC(=O)CN(Cc2ccc(C#N)cc2)C(=O)Cc2ccc3ccccc3c2)cc1

>  <Relation sign>
>

>  <selectivity ratio>
1

$$$$
>  <Structure smiles string>
COc1ccc(-n2c(SCCN3CCOCC3)nnc2[C@H](Cc2ccccc2)NC(=O)Cc2c(C)[nH]c3ccccc23)cc1

>  <Relation sign>
=

>  <selectivity ratio>
16

$$$$
>  <Structure smiles string>
COc1ccc(N(C)C(=O)[C@H](Cc2cc(F)cc(F)c2)NC(=O)CN2CCN(S(=O)(=O)c3cccc([N+](=O)[O-])c3)CC2)cc1

>  <Relation sign>
=

>  <selectivity ratio>
493

$$$$
>  <Structure smiles string>
COc1ccc(N(C)C(=O)[C@H](Cc2cc(F)cc(F)c2)NC(=O)CN2CCN(C(=O)Cc3c[nH]c4ccc(OC)cc34)CC2=O)cc1

>  <Relation sign>
<

>  <selectivity ratio>
1

$$$$

----------
Assay explanation: Selectivity ratio of EC50 for antiviral activity against HIV1 IIIB infected in human MT4 cells to EC50 for antiviral activity against HIV2 ROD infected in human MT4 cells
Format: toxicity, cell-based
Class boundaries, taken from values of Ratio EC50, are as follows: low bracket = under 0.6, middle bracket = from 0.6 up to 3, high bracket = 3 and over

>  <Structure smiles string>
COc1ccc(-n2c(SCc3ncccn3)nnc2[C@H](Cc2ccccc2)NC(=O)Cc2c(C)[nH]c3ccccc23)cc1

>  <Answer label>
low bracket

$$$$
>  <Structure smiles string>
COc1ccc(N(C)C(=O)[C@H](Cc2cc(F)cc(F)c2)NC(=O)CN2CCN(C(=O)Cc3c(C)[nH]c4ccccc34)CC2=O)cc1

>  <Answer label>
middle bracket

$$$$
>  <Structure smiles string>
COc1ccc(-n2c([C@H](Cc3ccccc3)NC(=O)CN3CCN(S(=O)(=O)c4ccc(N)cc4)CC3)nc3ccccc3c2=O)cc1

>  <Answer label>
high bracket

$$$$
>  <Structure smiles string>
COc1ccc(-n2c(SCCC(F)(F)F)nnc2[C@H](Cc2ccccc2)NC(=O)Cc2c(C)[nH]c3ccccc23)cc1

>  <Answer label>
low bracket

$$$$
>  <Structure smiles string>
COc1ccc(N(C)C(=O)[C@H](Cc2ccccc2)NC(=O)Cn2ccc(NC(=O)c3ccccc3)cc2=O)cc1

>  <Answer label>
high bracket

$$$$
>  <Structure smiles string>
COc1ccc(N(C)C(=O)[C@H](Cc2cc(F)cc(F)c2)NC(=O)CN2CCN(S(=O)(=O)c3cccc(F)c3)CC2)cc1

>  <Answer label>
middle bracket

$$$$
>  <Structure smiles string>
COc1ccc(N(C)C(=O)[C@H](Cc2cc(F)cc(F)c2)NC(=O)CN(Cc2ccc(F)cc2)C(=O)Cn2nc(C(F)(F)F)c3ccccc32)cc1

>  <Answer label>
low bracket

$$$$
>  <Structure smiles string>
COc1ccc(N(C)C(=O)[C@H](Cc2cc(F)cc(F)c2)NC(=O)CN2CCN(S(=O)(=O)c3ccccc3N)CC2)cc1

>  <Answer label>
high bracket

$$$$
>  <Structure smiles string>
COc1ccc(-n2c(SCC#N)nnc2[C@H](Cc2ccccc2)NC(=O)Cc2c(C)[nH]c3ccccc23)cc1

>  <Answer label>
low bracket

$$$$
>  <Structure smiles string>
COc1ccc(N(C)C(=O)[C@H](Cc2ccccc2)NC(=O)CN2CCN(C(=O)c3ccc(NC(=O)C4CC4)cc3)CC2=O)cc1

>  <Answer label>
high bracket

$$$$
>  <Structure smiles string>
COc1ccc(N(C)C(=O)[C@H](Cc2ccccc2)NC(=O)Cn2ccc(NC(=O)c3ccc(C)cc3)cc2=O)cc1

>  <Answer label>
middle bracket

$$$$
>  <Structure smiles string>
COc1ccc(N(C)C(=O)[C@H](Cc2cc(F)cc(F)c2)NC(=O)CN(Cc2ccc(F)cc2)C(=O)Cc2ccc(B3OC(C)(C)C(C)(C)O3)cc2)cc1

>  <Answer label>
middle bracket

$$$$
>  <Structure smiles string>
COc1ccc(N(C)C(=O)[C@H](Cc2ccccc2)NC(=O)CN2CCN(C(=O)c3ccc(NC(=O)C(F)(F)F)cc3)CC2=O)cc1

>  <Answer label>
high bracket

$$$$
>  <Structure smiles string>
COc1ccc(N(C)C(=O)[C@H](Cc2ccccc2)NC(=O)Cn2ccc(NC(=O)c3ccc(N)cc3)cc2=O)cc1

>  <Answer label>
high bracket

$$$$

----------
Assay explanation: Selectivity ratio of EC50 for antiviral activity against HIV1 IIIB infected in human MT4 cells to EC50 for antiviral activity against HIV2 ROD infected in human MT4 cells
Assay type: toxicity, cell-based
Recorded Ratio EC50 values for a group of compounds are listed next.

>  <Structure smiles string>
COc1ccc(N(C)C(=O)[C@H](Cc2cc(F)cc(F)c2)NC(=O)CN(Cc2ccc(F)cc2)C(=O)Cc2c(C)[nH]c3ccccc23)cc1

>  <Relation sign>
<

>  <Ratio EC50>
0.12

$$$$
>  <Structure smiles string>
COc1ccc(N(C)C(=O)[C@H](Cc2cc(F)cc(F)c2)NC(=O)CN(Cc2ccc(F)cc2)C(=O)Cc2ccc(B(O)O)cc2)cc1

>  <Relation sign>
=

>  <Ratio EC50>
0.64

$$$$
>  <Structure smiles string>
COc1ccc(-n2c(SCC(F)F)nnc2[C@H](Cc2ccccc2)NC(=O)Cc2c(C)[nH]c3ccccc23)cc1

>  <Relation sign>
=

>  <Ratio EC50>
0.35

$$$$
>  <Structure smiles string>
COc1ccc(N(C)C(=O)[C@H](Cc2cc(F)cc(F)c2)NC(=O)CN(Cc2ccc(C#N)cc2)C(=O)Cc2ccc3ccccc3c2)cc1

>  <Relation sign>
=

>  <Ratio EC50>
1.17

$$$$
>  <Structure smiles string>
COc1ccc(-n2c(SCC(N)=O)nnc2[C@H](Cc2ccccc2)NC(=O)Cc2c(C)[nH]c3ccccc23)cc1

>  <Relation sign>
=

>  <Ratio EC50>
0.24

$$$$
>  <Structure smiles string>
COc1ccc(N(C)C(=O)[C@H](Cc2cc(F)cc(F)c2)NC(=O)CN2CCN(S(=O)(=O)c3ccc(Br)cc3)CC2)cc1

>  <Relation sign>
=

>  <Ratio EC50>
2.46

$$$$
>  <Structure smiles string>
COc1ccc(N(C)C(=O)[C@H](Cc2cc(F)cc(F)c2)NC(=O)CN(Cc2ccc(F)cc2)C(=O)Cc2c[nH]c3ccc(Br)cc23)cc1

>  <Relation sign>
<

>  <Ratio EC50>
0.16

$$$$
>  <Structure smiles string>
COc1ccc(-n2c(SCCS(C)(=O)=O)nnc2[C@H](Cc2ccccc2)NC(=O)Cc2c(C)[nH]c3ccccc23)cc1

>  <Relation sign>
=

>  <Ratio EC50>
0.24

$$$$
>  <Structure smiles string>
COc1ccc(N(C)C(=O)[C@H](Cc2ccccc2)NC(=O)CN2CCN(C(=O)c3ccc(NS(C)(=O)=O)cc3)CC2=O)cc1

>  <Relation sign>
<

>  <Ratio EC50>
0.96

$$$$
>  <Structure smiles string>
COc1ccc(-n2c(SCc3ccccn3)nnc2[C@H](Cc2ccccc2)NC(=O)Cc2c(C)[nH]c3ccccc23)cc1

>  <Relation sign>
=

>  <Ratio EC50>
0.63

$$$$
>  <Structure smiles string>
C#CCSc1nnc([C@H](Cc2ccccc2)NC(=O)Cc2c(C)[nH]c3ccccc23)n1-c1ccc(OC)cc1

>  <Relation sign>
=

>  <Ratio EC50>
0.52

$$$$
>  <Structure smiles string>
COc1ccc(N(C)C(=O)[C@H](Cc2cc(F)cc(F)c2)NC(=O)CN2CCN(C(=O)c3ccc(NC(=O)C4CC4)cc3)CC2=O)cc1

>  <Relation sign>
=

>  <Ratio EC50>
0.95

$$$$
>  <Structure smiles string>
COc1ccc(N(C)C(=O)[C@H](Cc2cc(F)cc(F)c2)NC(=O)CN2CCN(C(=O)Cc3c[nH]c4ccc(F)cc34)CC2=O)cc1

>  <Relation sign>
=

>  <Ratio EC50>
1.16

$$$$
>  <Structure smiles string>
COc1ccc(N(C)C(=O)[C@H](Cc2cc(F)cc(F)c2)NC(=O)CN(Cc2ccc(C#N)cc2)C(=O)Cc2c[nH]c3ccc(Br)cc23)cc1

>  <Relation sign>
=

>  <Ratio EC50>
0.36

$$$$
>  <Structure smiles string>
COc1ccc(-n2c(SCc3cccnc3)nnc2[C@H](Cc2ccccc2)NC(=O)Cc2c(C)[nH]c3ccccc23)cc1

>  <Relation sign>
<

>  <Ratio EC50>
0.38

$$$$

----------
Recorded CC50 values for a group of molecules are listed next.
Assay explanation: Cytotoxicity against human MT4 cells assessed as reduction in cell viability
Assay type: toxicity, cell-based
Experimental readout: CC50 (µM)

>  <Structure smiles string>
COc1ccc(N(C)C(=O)[C@H](Cc2cc(F)cc(F)c2)NC(=O)CN2CCN(S(=O)(=O)c3ccc(Cl)cc3)CC2)cc1

>  <Experimental readout>
CC50

>  <Relation sign>
=

>  <Endpoint result>
9.05

$$$$
>  <Structure smiles string>
COc1ccc(N(C)C(=O)[C@H](Cc2cc(F)cc(F)c2)NC(=O)CN2CCN(S(=O)(=O)c3ccccc3[N+](=O)[O-])CC2)cc1

>  <Experimental readout>
CC50

>  <Relation sign>
=

>  <Endpoint result>
94.9

$$$$
>  <Structure smiles string>
COc1ccc(N(C)C(=O)[C@H](Cc2cc(F)cc(F)c2)NC(=O)CN2CCN(S(=O)(=O)c3cccc(F)c3)CC2)cc1

>  <Experimental readout>
CC50

>  <Relation sign>
>

>  <Endpoint result>
202

$$$$
>  <Structure smiles string>
COc1ccc(N(C)C(=O)[C@H](Cc2cc(F)cc(F)c2)NC(=O)CN2CCN(S(=O)(=O)c3ccccc3N)CC2)cc1

>  <Experimental readout>
CC50

>  <Relation sign>
=

>  <Endpoint result>
63.6

$$$$
